- System: HL-60(TB) leukemia
- measurement-protocol: NCI tumour cell line growth inhibition, 48 h; in the data active means GI50 below about 0.43 µM; inactive means the rest
The reply should be one of these categories: active, inactive

INSERT INTO measurements (compound, group) VALUES
  ('N#Cc1c(Oc2ccc(F)c(NC(=O)Cc3cccc(C(F)(F)F)c3)c2)ccc2nc(NC(=O)C3CC3)sc12', 'inactive');

State the result this test recorded for COC(=O)Nc1nc2ccc(Sc3ccccc3)cc2[nH]1 .
active

And the next one, CN1CCN(c2ccc3nc4c(nc3c2C(F)(F)F)C(=O)c2ncccc2C4=O)CC1 ?
inactive

And the next one, CCCCCCC1N=C(N)N=C(N)N1c1ccc(Cl)cc1 (stereo unspecified) ?
inactive

And the next one, CON ?
inactive

And the next one, COc1ccc(NC(=O)O[C@H]2[C@H](O[C@H]3[C@@H](O)COC(O[C@H]4C[C@H]5[C@@H]6CC=C7C[C@@H](O)CC[C@]7(C)[C@H]6CC[C@]5(C)[C@H]4[C@H](C)C(=O)CCC(C)C)[C@@H]3OC(C)=O)OC[C@@H](O)[C@@H]2O)cc1 (stereo partly specified) ?
active

And the next one, CNCCOc1nc2c3cnccc3cc(-c3cc(OC)c(OC)c(OC)c3)c2c2ccncc12 ?
active

And the next one, Cc1ccc(-c2cc(/C=N/O)on2)cc1 ?
inactive

And the next one, Cc1cccnc1CNC1CC(NCc2ncccc2C)CC(NCc2ncccc2C)C1 (stereo unspecified) ?
inactive

And the next one, COc1ccc(-n2cc(-c3ccc(OC)c(OC)c3)nc2SCc2ccccc2)cc1Cl ?
inactive

And the next one, COc1cc(C2C(C#N)=C(N)Oc3cc4c(cc32)OCO4)cc2c1OCO2 (stereo unspecified) ?
active
